# measuredTarget: human PDE4D catalytic domain (UniProt no. Q08499 [S380-L740]) (Homo sapiens (Human), UniProt Q08499)
# Sequence (Q08499 380-740): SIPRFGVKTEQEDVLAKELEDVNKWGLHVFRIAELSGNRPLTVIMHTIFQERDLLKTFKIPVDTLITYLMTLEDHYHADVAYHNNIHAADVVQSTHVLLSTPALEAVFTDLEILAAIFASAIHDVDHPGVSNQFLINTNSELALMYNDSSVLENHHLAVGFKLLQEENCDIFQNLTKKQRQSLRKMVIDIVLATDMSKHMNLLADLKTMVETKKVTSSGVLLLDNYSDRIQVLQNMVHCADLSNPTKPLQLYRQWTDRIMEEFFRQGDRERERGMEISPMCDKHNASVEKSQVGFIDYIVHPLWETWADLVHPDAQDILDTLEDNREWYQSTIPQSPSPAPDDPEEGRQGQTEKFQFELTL
# assayNotes: PDE4 assay (TR-FRET, cAMP hydrolysis)
# Assay type: biochemical
# assayContext: read-out: PDE4 IC50 range
pIC50: −log10 of the molar value.
assayEndpoint: pIC50

Examples with answers:
[
  {
    "compound": "CN(c1nc(N2CC(OC(=O)C3CCSCC3)C2)nc2c1[S+](O)CC2)C1CCOCC1 (stereo not drawn) [Example 40]",
    "experimentalResult": "> 7.00"
  },
  {
    "compound": "CC(=O)N1CCC(Nc2nc(N3CC(OC(=O)c4cscn4)C3)nc3c2[S+](O)CC3)CC1 (stereo not drawn) [Example 76]",
    "experimentalResult": "6.30 to 7.00"
  }
]

Recall and state the measured pIC50 for CC(=O)N1CCC(Nc2nc(N3CC(OC(=O)C4CCOCC4)C3)nc3c2[S+](O)CC3)CC1 (stereo not drawn) [Example 77] .
6.30 to 7.00

Recall and state the measured pIC50 for CN(c1nc(N2CC(OC(=O)c3ccc(S(C)(=O)=O)cc3)C2)nc2c1[S+](O)CC2)C1CCOCC1 (stereo not drawn) [Example 54] .
> 7.00

Recall and state the measured pIC50 for CCc1nc(C(=O)OC2CN(c3nc4c(c(N(C)C5CCOCC5)n3)[S+]([O-])CC4)C2)co1 (stereo not drawn) [Example 33] .
> 7.00

Recall and state the measured pIC50 for CC(=O)c1cccc(C(=O)OC2CN(c3nc4c(c(N(C)C5CCOCC5)n3)[S+](O)CC4)C2)c1 (stereo not drawn) [Example 47] .
> 7.00

Recall and state the measured pIC50 for CC(=O)N1CC[C@@H](Nc2nc(N3CC(OC(=O)C4CCOCC4)C3)nc3c2[S@+](O)CC3)C1 [Example 75] .
< 6.30

Recall and state the measured pIC50 for COC(=O)N1CCC(C(=O)OC2CN(c3nc4c(c(N(C)C5CCOCC5)n3)[S+](O)CC4)C2)CC1 (stereo not drawn) [Example 52] .
> 7.00

Recall and state the measured pIC50 for O=C(OC1CN(c2nc3c(c(NC4CC5(COC5)C4)n2)[S@@+]([O-])CC3)C1)c1cscn1 (single isomer, unassigned) [Example 70] .
> 7.00
